TESTED ON: Alpha-2A adrenergic receptor (Homo sapiens)
Sequence (P08913 whole entry): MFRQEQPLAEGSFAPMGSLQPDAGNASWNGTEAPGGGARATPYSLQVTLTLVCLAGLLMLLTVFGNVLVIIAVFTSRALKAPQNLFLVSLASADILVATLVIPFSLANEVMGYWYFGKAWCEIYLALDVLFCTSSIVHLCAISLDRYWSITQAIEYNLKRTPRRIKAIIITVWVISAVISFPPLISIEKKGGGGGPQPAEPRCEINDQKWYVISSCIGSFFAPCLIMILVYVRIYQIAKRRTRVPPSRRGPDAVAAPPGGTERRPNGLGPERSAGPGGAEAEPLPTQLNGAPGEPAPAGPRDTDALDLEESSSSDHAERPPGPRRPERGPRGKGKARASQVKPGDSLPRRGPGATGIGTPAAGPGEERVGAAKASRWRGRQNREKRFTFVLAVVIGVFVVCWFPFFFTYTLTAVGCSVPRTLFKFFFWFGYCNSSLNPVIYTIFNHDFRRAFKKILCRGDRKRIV
# literature pull: Alpha-2A adrenergic receptor (Homo sapiens) Ki
ASSAY ENDPOINT: Ki (nM)

1) CC(C)(C)[C@]1(O)CCN2C[C@H]3c4ccccc4CCc4cccc(c43)[C@@H]2C1 = 53
2) COC1(C2=NCCN2)COc2ccccc2O1 (centres undefined) = 0.36
3) COc1ccc(OC[C@H]2CN(C)CC[C@@H]2c2ccccc2)cc1 = 1970
4) CN(C)CCON=C(C=Cc1ccc(O)cc1)c1ccccc1F = 726
5) COC(=O)C1=COC(C)C2CN3CCc4c([nH]c5ccccc45)C3CC12 (centres undefined) = 6.4
6) c1cnc(N2CCN(Cc3ccc4c(c3)OCO4)CC2)nc1 = 89.1
7) COc1cccc(OC)c1OCCNCC1Oc2ccccc2OC1c1ccccc1 (centres undefined) = 14.6
8) O=C(c1ccc(OCCCc2cnc[nH]2)cc1)C1CC1 = 42.7
9) Fc1cccc(Cl)c1C1CC2=NCCN2C1 (centres undefined) = 7.94
10) CN1CCC2(CCN3CCc4c(oc5ccccc45)C3C2)N(C)C1=O (centres undefined) = 0.85

A = Nc1cc(Cl)c(N=C2NCCN2)c(Cl)c1
B = CN(CCCN1c2ccccc2CCc2ccccc21)CC(=O)c1ccc(Cl)cc1
Hi, I'm comparing two records. Which one has the lower Ki, A or B ? Please indicate the selected item by its label.
A

1 = CN(C)CCCN1c2ccccc2CCc2ccccc21
2 = C=CCN1CCc2nc(N)sc2CC1
Hi, I'm comparing two records. Which one has the lower Ki, 1 or 2 ? Returns: label corresponding to the selected item.
2
(2: 398 nM, 1: 3100 nM)
